assay: small-molecule microarray binders of probe aShh, primary screen, biochemical, biotinylated probe, 635/667 nm fluorescence (AID 1114); conditions: higher = more signal;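 note: probe is biotin-labelled aShh protein from a stem cell growth factor screen; measures binding of labelled protein to compounds printed on the slide; score merges feature fluorescence at 667 nm with signal-to-noise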
# label = Satisfied if composite z-score >= -0.07 else Not satisfied

Smiles structure: Cc1ccc(S(=O)(=O)N[C@H]2COC(=O)CC=C[C@@H](C)COC(=O)CC=C[C@@H]2C)cc1
Classification: Not satisfied
--
Smiles structure: C#CCCCON=C1C[C@@H](O)[C@@H](O)[C@@H]2[C@@H]3C(=O)N(CCC(=O)OCC)C(=O)[C@@H]3CC[C@H]12
Classification: Satisfied
--
Smiles structure: CO[C@@H]1C=CCC(=O)N[C@@H](C)C(=O)OC[C@@H](OC)[C@H](C)CCCC(=O)OC[C@H]1C
Classification: Not satisfied
--
Smiles structure: Cc1ccc(S(=O)(=O)OC[C@H]2CN3[C@H](c4ccc(Br)cc4)[C@@H](C)CC[C@H]3C(=O)O2)cc1
Classification: Satisfied
--
Smiles structure: CCN1C(=O)[C@H]2[C@H]3[C@H](O)[C@H](O)CC(=NO[C@@H](C)c4cn([C@H](CO)Cc5ccccc5)nn4)[C@@H]3CC[C@H]2C1=O
Classification: Not satisfied
--
Smiles structure: COC(=O)CC=C[C@@H](C)[C@@H](C=NOC[C@H]1O[C@H](c2ccccc2)C=C[C@@H]1Oc1ccc(OC)cc1)OC
Classification: Not satisfied
--
Smiles structure: CCc1cc2c(nc1CC)CCN(CCC(C)=NO[C@H](C)c1cn([C@H](CO)Cc3ccccc3)nn1)C2
Classification: Satisfied

----------
molecular target: Alpha-bungarotoxin (Bungarus multicinctus); experiment: alpha-bungarotoxin binders on microarray, profiling panel, artefact control for SMM control protein annotation, biochemical, small-molecule microarray, Alexa647 label, 635/667 nm fluorescence (AID 1117); settings: alpha-BTX-A647 binding fluorescence, higher = more signal
Quick list: composite z-score per entry.
Endpoint name: composite z-score

Compound: COc1ccc(COC(=O)NN=C2C[C@@H](O)[C@@H](O)[C@@H]3[C@@H]4C(=O)N(Cc5ccccc5)C(=O)[C@@H]4CC[C@H]23)cc1
Result: 0.469
//
Compound: CC[C@@H](c1ccccc1)n1c(=O)n2n(c1=O)[C@H]1[C@H](O)[C@@H]3O[C@@H]3C(=NOC[C@@H](O)COCc3ccco3)[C@H]1CC2
Result: -0.201
//
Compound: CCc1cc2c(nc1CC)CCN(CCC(C)=NO[C@H](C)c1cn([C@@H]3COC[C@H]3O)nn1)C2
Result: 0.173
//
Compound: CO[C@H]1COC(=O)[C@@H]2CCCN2C(=O)CC=C[C@@H](C)[C@H](OC)COC(=O)[C@@H](OCc2ccccc2)C=C[C@@H]1C
Result: -0.178
//
Compound: COC(=O)NCC=Cc1nc(CCCO)co1
Result: -0.498
//
Compound: CO[C@H]1COC(=O)CCC[C@@H](C)[C@H](OC)COC(=O)[C@@H](C)NC(=O)CC=C[C@@H]1C
Result: -0.314
//
Compound: CCOC(=O)[C@H](CC(C)C)NC(=O)CCC1CC(OC(=O)NCCc2ccc(F)cc2)CC2(CCCC(COC(=O)NCC3CCCCC3)O2)O1 (stereo partly drawn)
Result: 0.596
//
Compound: CCO[C@H](c1cc(OC)cc([N+](=O)[O-])c1OC)[C@H](C)C=CCC(=O)OC
Result: -0.0356

----------
Quick list: z-score per entry.
assay: splicing luciferase reporter signal modulators, primary screen, spliceosome inhibition project, cell-based, HEK293, splice +/- reporter (AID 1101); conditions: luminescence, 24 h, higher = more signal, called active from +8 up or from −8 down;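 note: HEK293 cells carrying a splicing-competent luciferase reporter gene; test concentration not given here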
Endpoint name: z-score

Smiles structure: COC(=O)CC=C[C@@H](C)[C@@H](C=NOCC[C@@H]1C=C[C@H](OC(C)=O)[C@@H](COC(C)=O)O1)OC
Endpoint name: z-score
Number: 1.21
--
Smiles structure: CON=CC[C@@H]1C=C[C@H](OC(C)=O)[C@@H](COC(C)=O)O1
Endpoint name: z-score
Number: 0.079
--
Smiles structure: CC(C)[C@@H](OCc1ccccc1)[C@H](C)C=NOC[C@@H](O)COCc1ccco1
Endpoint name: z-score
Number: -0.129
--
Smiles structure: C#CCCCON=C1C[C@@H](O)[C@@H](O)[C@@H]2[C@@H]3C(=O)N(C(C)(C)C)C(=O)[C@@H]3CC[C@H]12
Endpoint name: z-score
Number: 0.233
--
Smiles structure: O=C(C=Cc1ccc2c(c1)OCO2)c1ccc(F)cc1
Endpoint name: z-score
Number: -0.603
--
Smiles structure: CC(C)=CCCC(C)=CCON=C1C[C@@H](O)[C@@H](O)[C@@H]2[C@@H]3C(=O)N(C(C)(C)C)C(=O)[C@@H]3CC[C@@H]12
Endpoint name: z-score
Number: -0.0767
--
Smiles structure: C#CCCCON=C1C[C@@H](O)[C@@H](O)[C@@H]2[C@@H]3C(=O)N(CCC(=O)OCC)C(=O)[C@@H]3CC[C@H]12
Endpoint name: z-score
Number: -1.79
--
Smiles structure: CC(CCN1CCCCc2nc(C)c(C)cc21)=NOC[C@@H](C)[C@H](OCc1ccccc1)C(C)C
Endpoint name: z-score
Number: -1.22

----------
Quick list: composite z-score per entry.
test: binders of probe aFST on microarray, primary screen, stem cell growth factor project, biochemical, small-molecule microarray, fluorescence 635/667 (AID 1086); details: higher = more signal;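 note: score merges 667 nm fluorescence with signal-to-noise of each printed compound spot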
Endpoint name: composite z-score

Compound: CCOC(=O)[C@H](Cc1ccccc1)NC(=O)CCC1CC(OC(=O)NCCc2ccc(F)cc2)CC2(CCCC(COC(=O)NCCc3ccccc3OC)O2)O1 (stereo not given in full)
Result: 0.759
//
Compound: CO[C@H]1COC(=O)CC=C[C@H](C)[C@@H](OC)COC(=O)[C@@H](C)NC(=O)CC=C[C@@H]1C
Result: -0.251
//
Compound: CON=CC[C@@H]1C=C[C@H](OC(C)=O)[C@@H](COC(C)=O)O1
Result: 0.143
//
Compound: CO[C@H]1COC(=O)[C@@H](C)COC(=O)[C@@H](OCc2ccccc2)C=C[C@@H]1C
Result: -0.155
//
Compound: CCN1C(=O)[C@H]2[C@H]3[C@H](O)[C@H](O)CC(=NNC(=O)OCc4ccc(OC)cc4)[C@@H]3CC[C@H]2C1=O
Result: 0.508
//
Compound: CCOC(=O)[C@H](CC(C)C)NC(=O)CCC1CC(OC(=O)NCc2ccc3c(c2)OCO3)CC2(CCCC(COC(=O)NCC(c3ccccc3)c3ccccc3)O2)O1 (stereo not given in full)
Result: 0.344
//
Compound: COC(=O)CC=C[C@@H](C)[C@@H](C=NO[C@@H](C)c1cn([C@H](CO)Cc2ccccc2)nn1)OC
Result: 0.0066
//
Compound: CON=C[C@@H](C)[C@H](OCc1ccccc1)C(C)C
Result: -0.0062
//
Compound: COC(=O)CC=C[C@@H](C)[C@@H](C=NO[C@H](C)c1cn([C@H](CO)Cc2ccccc2)nn1)NS(=O)(=O)c1ccc(C)cc1
Result: 0.227
//
Compound: CC(CCN1CCCCc2nc(C)c(C)cc21)=NO[C@H](C)c1cn([C@H](CO)Cc2ccccc2)nn1
Result: 0.627
//
Compound: COc1cc(O)c(C(=O)C=Cc2ccc3c(c2)OCO3)c(OC)c1
Result: -0.155
//
Compound: CO[C@H]1COC(=O)CC=C[C@@H](C)[C@H](OC)COC(=O)CCC[C@@H]1C
Result: -0.126
//
Compound: O=C1C=C[C@@H](O)[C@@H]2[C@@H]3C(=O)N(C[C@@H]4CCCO4)C(=O)[C@@H]3CC[C@@H]12
Result: 0.041
//
Compound: CO[C@H]1COC(=O)CC=C[C@H](C)[C@@H](OC)COC(=O)[C@@H](C)COC(=O)CC=C[C@@H]1C
Result: 0.0281
//
Compound: CCOC(=O)[C@H](CC(C)C)NC(=O)CCC1CC(OC(=O)NCCc2ccc(F)cc2)CC2(CCCC(COC(=O)NCC3CCCCC3)O2)O1 (stereo not given in full)
Result: -0.0627
//
Compound: CC(CCC(=O)OC[C@H]1O[C@H](C#Cc2ccccc2)C=C[C@@H]1Oc1ccc(C)cc1)=NO[C@H](C)c1cn([C@H](CO)Cc2ccccc2)nn1
Result: 0.337
//
Compound: CO[C@H]1COC(=O)[C@H](C)NC(=O)[C@@H](C)COC(=O)[C@H]2CCCN2C(=O)CC=C[C@H]1C
Result: -0.0694
//
Compound: CCOC(=O)[C@H](CC(C)C)NC(=O)CCC1CC(OC(=O)NCc2cccc3ccccc23)CC2(CCCC(COC(=O)NCc3ccncc3)O2)O1 (stereo not given in full)
Result: 0.407
//
Compound: C#CCCCON=C1C[C@@H](O)[C@@H](O)[C@@H]2[C@@H]3C(=O)N(c4ccc(F)cc4F)C(=O)[C@@H]3CC[C@@H]12
Result: 0.0638
//
Compound: CO[C@H]1COC(=O)[C@H](C)NC(=O)CC=C[C@@H](C)[C@H](OC)COC(=O)[C@@H](OCc2ccccc2)C=C[C@@H]1C
Result: 0.0521
//
Compound: CCOC(=O)[C@H](CC(C)C)NC(=O)CCC1CC(OC(=O)NCc2ccc3c(c2)OCO3)CC2(CCCC(COC(=O)NCc3cccc(C(F)(F)F)c3)O2)O1 (stereo not given in full)
Result: 0.0884
//
Compound: CC(=O)O[C@H]1C2=CO[C@H](C)[C@H]3[C@H]4C5=C([C@H](O)[C@H]6O[C@H]6C5=O)[C@H](OC4C)[C@@]23C(=O)[C@@H]2O[C@@H]21 (stereo not given in full)
Result: 0.163
//
Compound: CCOC(=O)[C@H](Cc1ccccc1)NC(=O)CCC1CC(OC(=O)NCCc2ccc(F)cc2)CC2(CCCC(COC(=O)NCCOC)O2)O1 (stereo not given in full)
Result: 0.169
//
Compound: COC(=O)CC=C[C@@H](C)[C@@H](C=NO[C@H](C)c1cn([C@@H]2COC[C@H]2O)nn1)NS(=O)(=O)c1ccc(C)cc1
Result: 0.374
//
Compound: O=C1[C@H]2[C@H]3[C@H](O)[C@H](O)CC(=NOC[C@@H](O)COCc4ccco4)[C@H]3CC[C@H]2C(=O)N1C[C@@H]1CCCO1
Result: -0.181
//
Compound: COC(=O)CC=C[C@@H](C)[C@@H](C=NO[C@@H](C)c1cc(-c2c(C)cc(C)cc2C)no1)NS(=O)(=O)c1ccc(C)cc1
Result: -0.176
//
Compound: CCOC(=O)C1=NO[C@@]2(C=C(Br)C3(OCCCO3)[C@H]3O[C@H]32)C1
Result: 0.248
//
Compound: CCCCc1nc2c(c3c1C[C@H](C)OC3)CN(CCOc1ccccc1)CC2
Result: 0.192
//
Compound: CCCCC#C[C@@H]1C=C[C@H](OC(C)=O)[C@@H](COC(C)=O)O1
Result: 0.0643
//
Compound: C[C@@H](c1ccccc1)N1C(=O)[C@H]2[C@H]3[C@H](O)[C@H](O)CC(=NOCc4ccccc4)[C@H]3CC[C@H]2C1=O
Result: 0.317
